Entry source: patent US11478460B2

Recorded IC50, one value per entry.
- ASSAY_TARGET: UniProt P21730
- TEST_METHOD_NOTES: Chemotaxis assay using U937 cells (C5aR mediated migration)
- Type: cell-based
- STATED_CONDITIONS: read-out: Mig IC50

# annotated cases, reported IC50 shown
# MOLECULE, IC50
rows = [
    ("CCc1cccc(CC)c1-n1nc2c(c1-c1cc(F)c(NC(N)=O)cc1F)CN(Cc1ccc(F)cc1C(F)(F)F)C(C)(C)C2 [Example 1.012]", "≤ 5 nM"),
    ("CCN1CCc2nn(-c3c(C)cccc3OCC(C)C)c(-c3ccc(NC(N)=O)c(F)c3)c2C1 [Example 1.265]", "50 to 500 nM"),
    ("Cc1cccc(OCC(C)C)c1-n1nc2c(c1-c1ccc(NC(N)=O)cc1)CN(C(C)c1ccc(C(F)(F)F)cc1)CC2 (stereo not drawn) [Example 1.306]", "≤ 5 nM"),
]

Recorded result, CCc1cccc(CC)c1-n1nc2c(c1-c1ccc(NC(N)=O)cc1)CN(CC(C)(C)C)CC2 [Example 1.282] , IC50: 5 to 50 nM

Recorded result, CCc1cccc(CC)c1-n1nc2c(c1-c1ccc(NC(N)=O)cc1)CN(C(CC)c1ccccc1C(F)(F)F)CC2 (stereo not drawn) [Example 1.286] , IC50: 5 to 50 nM

Recorded result, CCc1cccc(CC)c1-n1nc2c(c1-c1cc(F)c(NC(N)=O)cc1F)CN(Cc1cc(OC)ccc1C(F)(F)F)CC2 [Example 1.045] , IC50: ≤ 5 nM

###

Recorded IC50, one value per entry.
- ASSAY_TARGET: C5aR (Homo sapiens (Human), UniProt P21730)
- Sequence (P21730 whole entry): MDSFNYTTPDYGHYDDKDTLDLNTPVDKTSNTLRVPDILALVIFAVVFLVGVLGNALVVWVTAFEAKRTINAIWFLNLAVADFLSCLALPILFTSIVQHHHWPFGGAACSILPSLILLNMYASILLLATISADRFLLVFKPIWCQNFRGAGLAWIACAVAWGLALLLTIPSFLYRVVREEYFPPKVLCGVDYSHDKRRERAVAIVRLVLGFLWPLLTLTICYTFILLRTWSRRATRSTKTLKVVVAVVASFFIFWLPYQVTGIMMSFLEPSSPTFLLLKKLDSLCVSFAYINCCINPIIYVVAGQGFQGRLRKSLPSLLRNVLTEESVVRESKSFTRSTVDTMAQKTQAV
- TEST_METHOD_NOTES: Chemotaxis assay using U937 cells (C5aR mediated migration)
- STATED_CONDITIONS: read-out: Mig IC50

# MOLECULE, REPORTED_RESULT
rows = [
    ("Cc1cccc(OCC(C)C)c1-n1nc2c(c1-c1ccc(NC(N)=O)cc1)CN(C1CCCC1C)CC2 (stereo not shown) [Example 1.397]", "50 to 500 nM"),
    ("Cc1cccc(OCC(C)C)c1-n1nc2c(c1-c1ccc(NC(N)=O)cc1)CN(Cc1ccc(Cl)cc1Cl)CC2 [Example 1.328]", "≤ 5 nM"),
    ("Cc1cc(C(N)=O)ccc1-c1c2c(nn1-c1c(C)cccc1OCC(C)C)CCN(c1cc(C(C)(C)C)ccc1C)C2 [Example 1.443]", "50 to 500 nM"),
    ("CCc1cccc(CC)c1-n1nc2c(c1-c1cc(F)c(NC(N)=O)cc1F)CN(CCCC(F)(F)F)C(C)(C)C2 [Example 1.008]", "≤ 5 nM"),
    ("Cc1cccc(C)c1-n1nc2c(c1-c1cc(F)c(NC(N)=O)cc1F)CN(c1ncc(Cl)cc1F)CC2 [Example 1.132]", "≤ 5 nM"),
]

Recorded result, Cc1cccc(C)c1-n1nc2c(c1-c1cc(F)c(NC(N)=O)cc1F)CN(c1ccccc1Cl)CC2 [Example 1.103] , IC50: ≤ 5 nM

Recorded result, Cc1cccc(OCC(C)C)c1-n1nc2c(c1-c1ccc(NC(N)=O)c(F)c1)CN(c1ncc(C(C)C)cc1F)CC2 [Example 1.218] , IC50: ≤ 5 nM

Recorded result, CCc1cccc(CC)c1-n1nc2c(c1-c1ccc(NC(N)=O)c(F)c1)CN(C(C)CC)CC2 (stereo not shown) [Example 1.235] , IC50: 5 to 50 nM

Recorded result, Cc1cccc(OCC(C)C)c1-n1nc2c(c1-c1ccc(NC(N)=O)c(F)c1)CN([C@@H](C)C(C)C)CC2 [Example 1.257] , IC50: ≤ 5 nM

Recorded result, Cc1cccc(OCC(C)C)c1-n1nc2c(c1-c1ccc(NC(N)=O)cc1)CN(C(=O)CC(C)(C)C)CC2 [Example 1.435] , IC50: 50 to 500 nM

Recorded result, CCc1cccc(CC)c1-n1nc2c(c1-c1ccc(NC(N)=O)cc1)CN(Cc1cc(Cl)ccc1Cl)CC2 [Example 1.291] , IC50: 5 to 50 nM

Recorded result, Cc1cccc(C)c1-n1nc2c(c1-c1ccc(C(N)=O)cc1)CN(c1ncc(Cl)cc1Cl)CC2 [Example 1.109] , IC50: 50 to 500 nM

Recorded result, Cc1cccc(C)c1-n1nc2c(c1-c1cc(F)c(NC(N)=O)cc1F)CN(c1ncc(Cl)cc1C#N)CC2 [Example 1.102] , IC50: ≤ 5 nM

Recorded result, CCc1cccc(CC)c1-n1nc2c(c1-c1ccc(NC(N)=O)cc1)CN(Cc1ccccn1)CC2 [Example 1.283] , IC50: > 500 nM

###

- ASSAY_TARGET: C5aR (Homo sapiens (Human), UniProt P21730)
- TEST_METHOD_NOTES: Chemotaxis assay using U937 cells (C5aR mediated migration)
- STATED_CONDITIONS: read-out: Mig IC50
Recorded IC50, one value per entry.

# annotated cases, reported IC50 shown
# MOLECULE, REPORTED_RESULT
rows = [
    ("CCC(c1ccccc1)N1CCc2nn(-c3c(C)cccc3C)c(-c3cc(F)c(NC(N)=O)cc3F)c2C1 (stereo not drawn)", "≤ 5 nM"),
    ("Cc1cccc(OCC(C)C)c1-n1nc2c(c1-c1ccc(NC(N)=O)cc1)CN(Cc1ccc(F)cc1F)CC2", "≤ 5 nM"),
    ("Cc1cnc(N2CCc3nn(-c4c(C)cccc4OCC(C)C)c(-c4ccc(NC(N)=O)c(F)c4)c3C2)c(F)c1", "≤ 5 nM"),
    ("Cc1cccc(F)c1-n1nc2c(c1-c1cc(F)c(NC(N)=O)cc1F)CN(c1ncc(Cl)cc1Cl)CC2", "≤ 5 nM"),
    ("Cc1cccc(OCC(C)C)c1-n1nc2c(c1-c1ccc(NC(N)=O)cc1)CN(C(C)c1cccc(C(F)(F)F)c1)CC2 (stereo not drawn) [Example 1.314]", "5 to 50 nM"),
]

--- query ---
Recorded result, CCc1cccc(CC)c1-n1nc2c(c1-c1cc(F)c(NC(N)=O)cc1F)CN(Cc1ccc(C(F)(F)F)cc1Cl)C(C)(C)C2 , IC50: ≤ 5 nM

###

Recorded IC50, one value per entry.
- ASSAY_TARGET: C5aR (Homo sapiens (Human))
- TEST_METHOD_NOTES: Chemotaxis assay using U937 cells (C5aR mediated migration)
- STATED_CONDITIONS: read-out: Mig IC50

# COMPOUND, ASSAY_TARGET, IC50
measured = [
    ("CCc1cccc(CC)c1-n1nc2c(c1-c1cc(F)c(NC(N)=O)cc1F)CN(C(C)(C)c1ccccc1F)CC2 [Example 1.186]", "C5aR (Homo sapiens (Human))", "≤ 5 nM"),
    ("Cc1cccc(OCC(C)C)c1-n1nc2c(c1-c1ccc(NC(N)=O)cc1)CN(Cc1ccc(C(F)(F)F)cc1Cl)CC2 [Example 1.315]", "C5aR (Homo sapiens (Human))", "≤ 5 nM"),
    ("Cc1cc(C(N)=O)ccc1-c1c2c(nn1-c1c(C)cccc1C)CCN(c1ncc(Cl)cc1Cl)C2 [Example 1.108]", "C5aR (Homo sapiens (Human))", "> 500 nM"),
]

Recorded result, CCc1cccc(CC)c1-n1nc2c(c1-c1cc(F)c(NC(N)=O)cc1F)CN(Cc1cc(C(F)(F)F)ccc1C(F)(F)F)C(C)(C)C2 [Example 1.011] , IC50: ≤ 5 nM

###

Recorded IC50, one value per entry.
- ASSAY_TARGET: C5aR (Homo sapiens (Human))
- TEST_METHOD_NOTES: Chemotaxis assay using U937 cells (C5aR mediated migration)
- STATED_CONDITIONS: read-out: Mig IC50
- Method: U937 cells are a monocytic cell line which express C5aR, and are available from ATCC (VA). […] Optionally, compounds may be further assayed for their ability to inhibit chemotaxis in cells. […] The chambers are incubated 1.5 hours at 37° C., and the number of cells in the lower chamber quantified either by direct cell counts in five high powered fields per well or by the CyQuant assay (Molecular Probes), a fluorescent dye method that measures nucleic acid content and microscopic observation. […]

Recorded result, Cc1cnc(N2CCc3nn(-c4c(C)cccc4C)c(-c4cc(F)c(NC(N)=O)cc4F)c3C2)c(Cl)c1 , IC50: ≤ 5 nM

Recorded result, Cc1cccc(OCC(C)C)c1-n1nc2c(c1-c1cc(F)c(NC(N)=O)cc1F)CN(c1ncncc1Cl)CC2 , IC50: ≤ 5 nM

Recorded result, Cc1cccc(OCC(C)C)c1-n1nc2c(c1-c1cc(F)c(NC(N)=O)cc1F)CN(C(C)(C)C#N)CC2 , IC50: 50 to 500 nM

Recorded result, Cc1cccc(OCC(C)C)c1-n1nc2c(c1-c1ccc(NC(N)=O)cc1)CN(C(=O)C1CCCC1)CC2 , IC50: 50 to 500 nM

Recorded result, Cc1cccc(OCC(C)C)c1-n1nc2c(c1-c1ccc(NC(N)=O)cc1)CN(c1ccc(C(F)(F)F)cc1Cl)CC2 , IC50: 5 to 50 nM

Recorded result, COc1cccc(C)c1-n1nc2c(c1-c1cc(F)c(NC(N)=O)cc1F)CN(c1ncc(Cl)cc1Cl)CC2 , IC50: ≤ 5 nM

Recorded result, Cc1cccc(OCC(C)C)c1-n1nc2c(c1-c1ccc(NC(N)=O)cc1)CN(Cc1ccccc1C(C)C)CC2 , IC50: 5 to 50 nM

Recorded result, CCNc1ccc(-c2c3c(nn2-c2c(C)cccc2OC)CCN(c2ccccc2C(C)C)C3)cc1 , IC50: 5 to 50 nM

Recorded result, CCc1cccc(CC)c1-n1nc2c(c1-c1ccc(NC(N)=O)cc1)CN(CC(C)(C)C(F)(F)F)CC2 , IC50: 5 to 50 nM

Recorded result, CC(C)COc1ccccc1-n1nc2c(c1-c1cc(F)c(NC(N)=O)cc1F)CN(c1ncc(Cl)cc1Cl)CC2 , IC50: ≤ 5 nM

Recorded result, COc1cc(-c2c3c(nn2-c2c(C)cccc2OCC(C)C)CCN(c2ncc(C(F)(F)F)cc2F)C3)ccc1NC(N)=O , IC50: 5 to 50 nM

Recorded result, Cc1cccc(OCC(C)C)c1-n1nc2c(c1-c1ccc(NC(N)=O)cc1)CN(S(=O)(=O)c1ccccc1C(F)(F)F)CC2 , IC50: 50 to 500 nM

Recorded result, Cc1cc(NC(N)=O)c(F)cc1-c1c2c(nn1-c1c(C)cccc1OCC(C)C)CCN(c1ncc(C(F)(F)F)cc1F)C2 , IC50: ≤ 5 nM

Recorded result, CCc1cccc(CC)c1-n1nc2c(c1-c1cc(F)c(NC(N)=O)cc1F)CN(C(=O)C1CCOCC1)C(C)(C)C2 , IC50: 5 to 50 nM

Recorded result, COc1cccc(F)c1-n1nc2c(c1-c1cc(F)c(NC(N)=O)cc1F)CN(c1ncc(Cl)cc1Cl)CC2 , IC50: 5 to 50 nM
